# assay.target: Lysine-specific demethylase 6A (Homo sapiens, UniProt O15550)
# Sequence (O15550 whole entry): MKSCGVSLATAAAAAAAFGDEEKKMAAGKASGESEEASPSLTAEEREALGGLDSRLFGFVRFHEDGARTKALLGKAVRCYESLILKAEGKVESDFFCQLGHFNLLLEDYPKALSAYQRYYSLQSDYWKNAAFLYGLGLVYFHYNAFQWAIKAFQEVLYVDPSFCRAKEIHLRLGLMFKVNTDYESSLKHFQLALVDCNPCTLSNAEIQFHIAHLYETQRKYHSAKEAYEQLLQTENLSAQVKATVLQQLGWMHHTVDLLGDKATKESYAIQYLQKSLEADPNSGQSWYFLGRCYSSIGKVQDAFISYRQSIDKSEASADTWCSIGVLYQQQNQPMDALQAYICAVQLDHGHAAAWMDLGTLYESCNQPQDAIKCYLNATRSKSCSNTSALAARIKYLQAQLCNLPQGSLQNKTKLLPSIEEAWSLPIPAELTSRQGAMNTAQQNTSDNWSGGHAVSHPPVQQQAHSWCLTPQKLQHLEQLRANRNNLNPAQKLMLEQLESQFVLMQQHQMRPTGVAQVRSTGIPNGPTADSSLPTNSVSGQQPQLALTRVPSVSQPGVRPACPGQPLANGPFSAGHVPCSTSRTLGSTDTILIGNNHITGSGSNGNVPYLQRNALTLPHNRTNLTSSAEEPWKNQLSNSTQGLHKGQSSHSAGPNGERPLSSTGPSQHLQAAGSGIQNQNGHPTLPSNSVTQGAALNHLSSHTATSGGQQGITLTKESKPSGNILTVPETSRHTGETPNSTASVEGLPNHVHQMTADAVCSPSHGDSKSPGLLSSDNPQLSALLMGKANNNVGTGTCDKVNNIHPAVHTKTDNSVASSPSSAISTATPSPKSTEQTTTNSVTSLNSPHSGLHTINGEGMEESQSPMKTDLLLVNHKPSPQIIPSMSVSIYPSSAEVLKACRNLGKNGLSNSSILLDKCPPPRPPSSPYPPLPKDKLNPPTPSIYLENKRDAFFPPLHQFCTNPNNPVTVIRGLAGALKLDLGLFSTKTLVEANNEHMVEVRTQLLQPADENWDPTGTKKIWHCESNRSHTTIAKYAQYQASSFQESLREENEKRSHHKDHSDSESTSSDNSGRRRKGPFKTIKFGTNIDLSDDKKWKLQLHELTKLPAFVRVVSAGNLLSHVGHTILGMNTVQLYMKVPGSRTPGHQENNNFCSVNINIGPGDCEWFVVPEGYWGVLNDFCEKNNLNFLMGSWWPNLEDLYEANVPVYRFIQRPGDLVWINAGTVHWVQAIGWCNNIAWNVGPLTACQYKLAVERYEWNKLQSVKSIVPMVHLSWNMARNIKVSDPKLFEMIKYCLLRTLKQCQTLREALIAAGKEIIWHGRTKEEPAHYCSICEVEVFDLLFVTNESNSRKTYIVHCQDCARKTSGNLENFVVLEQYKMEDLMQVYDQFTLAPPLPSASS
pIC50: −log10 of the molar value.
property.label: pIC50

Requested field: pIC50. Item: CCN1CCC(CNCc2cc(C(=O)O)ccn2)C1=O (stereo unspecified) < 5.60
